Cited source: ChEMBL document CHEMBL1125593

# System: membrane-bound phospholipase A2 (Oryctolagus cuniculus)
# measurement notes: Tested in vitro for inhibition of phospholipase A2 (PLA2) in rabbit heart membranes.
property name: IC30 (nM)

Sample answers from the record:
CN(C(=O)/C=C/c1ccc(O)c(O)c1)c1ccc(S(=O)(=O)NC2CCCC2)cc1 = 5430
CNS(=O)(=O)c1ccc(N(C)C(=O)/C=C/c2ccc(O)c(O)c2)cc1 = 44000
CN(C(=O)/C=C/c1ccc(S(C)(=O)=O)cc1)c1ccc(S(=O)(=O)NC2CCN(Cc3ccccc3)CC2)cc1 = 28

1. CN(C(=O)/C=C/c1ccc(S(C)(=O)=O)cc1)c1ccc(S(=O)(=O)NC2CCCCN(Cc3ccccn3)C2)cc1 (centres undefined)
2. CN(C(=O)/C=C/c1ccc(-n2ccnc2)cc1)c1ccc(S(=O)(=O)NC2CCCCCC2)cc1
Qu. I would appreciate it if you could say which entry, 1 or 2 , has the lower IC30 value. // output: label of the selected item
Ans. 1
